# collection of pIC50 values tested on Epidermal growth factor receptor (Homo sapiens, UniProt P00533)
# Sequence (P00533 whole entry): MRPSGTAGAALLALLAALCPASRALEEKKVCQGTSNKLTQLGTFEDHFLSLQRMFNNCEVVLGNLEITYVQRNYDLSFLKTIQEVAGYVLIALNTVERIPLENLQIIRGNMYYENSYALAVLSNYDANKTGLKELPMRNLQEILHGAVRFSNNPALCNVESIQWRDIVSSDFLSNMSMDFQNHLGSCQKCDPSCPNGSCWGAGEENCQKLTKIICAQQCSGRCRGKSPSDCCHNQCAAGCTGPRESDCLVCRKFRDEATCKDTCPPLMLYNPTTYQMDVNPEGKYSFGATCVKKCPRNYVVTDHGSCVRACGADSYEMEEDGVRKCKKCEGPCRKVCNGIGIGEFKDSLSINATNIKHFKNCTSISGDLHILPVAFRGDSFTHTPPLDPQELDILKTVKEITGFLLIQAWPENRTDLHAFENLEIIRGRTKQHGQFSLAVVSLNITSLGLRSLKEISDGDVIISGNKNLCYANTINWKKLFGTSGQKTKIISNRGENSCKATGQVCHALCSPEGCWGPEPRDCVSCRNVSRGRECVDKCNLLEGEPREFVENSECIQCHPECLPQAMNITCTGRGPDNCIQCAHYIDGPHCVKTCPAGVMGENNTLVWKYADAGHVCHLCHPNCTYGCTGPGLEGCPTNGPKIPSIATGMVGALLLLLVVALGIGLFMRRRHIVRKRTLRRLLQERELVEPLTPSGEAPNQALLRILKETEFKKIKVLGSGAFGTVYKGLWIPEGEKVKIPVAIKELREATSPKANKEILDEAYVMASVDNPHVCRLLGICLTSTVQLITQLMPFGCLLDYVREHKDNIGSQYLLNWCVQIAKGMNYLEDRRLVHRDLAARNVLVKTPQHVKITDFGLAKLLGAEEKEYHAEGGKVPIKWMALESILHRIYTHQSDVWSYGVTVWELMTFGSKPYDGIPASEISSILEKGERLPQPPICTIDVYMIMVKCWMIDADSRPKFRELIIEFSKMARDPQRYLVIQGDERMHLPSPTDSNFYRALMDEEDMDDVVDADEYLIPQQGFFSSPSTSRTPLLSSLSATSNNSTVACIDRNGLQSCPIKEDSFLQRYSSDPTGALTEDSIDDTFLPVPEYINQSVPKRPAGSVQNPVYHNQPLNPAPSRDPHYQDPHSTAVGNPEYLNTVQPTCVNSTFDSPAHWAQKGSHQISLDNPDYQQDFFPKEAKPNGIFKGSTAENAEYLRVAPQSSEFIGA
When answering, recall that pIC50 equals minus log10 of the concentration in mol/L, and write that number alone.

Here are 5 compounds together with their reported answers.
- Cc1cc2cc(n1)-c1cnn(C)c1OCCC[C@@H](C1CC1)CN1/C(=N/C2=O)Nc2cc(NC(C)C3COC3)ccc21 (some centres not stated): 8.85
- Cc1cc2cc(n1)-c1cnn(C)c1OCCC[C@@H](C1CC1)CN1/C(=N/C2=O)Nc2cc(NC3CCN(C)CC3)ccc21: 9.92
- Cc1cc2cc(n1)-c1cnn(C)c1OCCC[C@@H](C1CC1)CN1/C(=N/C2=O)Nc2ccc(NCCCN3CCCCC3)cc21: 9.25
- CCN1CCC(Nc2ccc3c(c2)N2C[C@H](C4CC4)CCCOc4c(cnn4C)-c4cc(cc(C)n4)C(=O)/N=C/2N3)CC1: 9.30
- Cc1cc2cc(n1)-c1cnn(C)c1OCCC[C@@H](C1CC1)CN1/C(=N/C2=O)Nc2ccc(NCCCN(C)C)cc21: 9.11

Which pIC50 value belongs to Cc1cc2cc(n1)-c1cnn(C)c1OCCC[C@@H](C1CC1)CN1/C(=N/C2=O)Nc2cc(NC[C@H]3COCCO3)ccc21 ?
8.74

Consider next the compound Cc1cc2cc(n1)-c1cnn(C)c1OCCC[C@@H](C1CC1)CN1/C(=N/C2=O)Nc2cc(NC3C(C)(C)OC3(C)C)ccc21 in the same way.
8.66

Consider next the compound Cc1cc2cc(n1)-c1cnn(C)c1OCCC[C@@H](C1CC1)CN1/C(=N/C2=O)Nc2cc(N[C@@H]3CCOC3)ccc21 in the same way.
8.92

Consider next the compound Cc1cc2cc(n1)-c1cnn(C3CC3)c1OCCC[C@@H](C)CN1/C(=N/C2=O)Nc2cc(NC3CCN(C)CC3)ccc21 in the same way.
8.59

Consider next the compound Cc1cc2cc(n1)-c1cnn(C)c1OCCC[C@@H](C1CC1)CN1/C(=N/C2=O)Nc2ccc(NC3CCN(C(C)C)CC3)cc21 in the same way.
9.41

Consider next the compound Cc1cc2cc(n1)-c1cnn(C)c1OCCC[C@@H](C1CC1)CN1/C(=N/C2=O)Nc2cc(NC3CCN(C(C)C)CC3)ccc21 in the same way.
9.26

Consider next the compound Cc1cc2cc(n1)-c1cnn(C)c1OCCC[C@@H](C1CC1)CN1/C(=N/C2=O)Nc2cc(NCCN(C)C)ccc21 in the same way.
9.17

Consider next the compound Cc1cc2cc(n1)-c1cnn(C)c1OCCC[C@@H](C1CC1)CN1/C(=N/C2=O)Nc2ccc(NCCN)cc21 in the same way.
9.29

Consider next the compound Cc1cc2cc(n1)-c1cnn(C)c1OCCC[C@@H](C1CC1)CN1/C(=N/C2=O)Nc2ccc(NC3CCN(C)CC3)cc21 in the same way.
9.70

Consider next the compound Cc1cc2cc(n1)-c1cnn(C)c1OCCC[C@@H](C1CC1)CN1/C(=N/C2=O)Nc2cc(NCC3COC3)ccc21 in the same way.
8.82

Consider next the compound Cc1cc2cc(n1)-c1cnn(C)c1OCCC[C@@H](C1CC1)CN1/C(=N/C2=O)Nc2cc(NCCN3CCOCC3)ccc21 in the same way.
9.06

Consider next the compound Cc1cc2cc(n1)-c1cnn(C3CC3)c1OCCC[C@@H](C)CN1/C(=N/C2=O)Nc2ccc(NCCN(C)C)cc21 in the same way.
9.15
